- assaySystem: GABA-A receptor; alpha-1/beta-2/gamma-2 (Homo sapiens) (UniProt P14867+P47870+P18507)
- experimentalProtocol: Agonist activity at recombinant human GABA-A alpha1beta2gamma2S receptor transiently expressed in human tsA201 cells assessed as GABA-induced maximum response incubated for 30 mins and measured up to 90 secs by FMP dye based FLIPR membrane potential blue assay relative to GABA
- Format: cell-based
Activity calls are given as the source filed them. No cut-off for these calls is given here.
measuredMetric: Rmax

Illustrative cases are given below, each with its answer.
{"molecule": "NC1=N[C@H](CC(=O)O)CS1", "Rmax": "97%"}
{"molecule": "Nc1nc(CC(=O)O)cs1", "Rmax": "inactive"}
{"molecule": "NC1=N[C@@H](CC(=O)O)CS1", "Rmax": "65%"}
{"molecule": "CC(C(=O)O)C1CSC(N)=N1 (stereo in doubt; l-10b)", "Rmax": "inactive"}
{"molecule": "CC(C(=O)O)C1CSC(N)=N1 (stereo in doubt; l-10a)", "Rmax": "69%"}
{"molecule": "C[C@@H](C(=O)O)[C@H]1CSC(N)=N1 (relative stereo)", "Rmax": "59%"}
{"molecule": "O=C(O)CC1CNC=N1 (configuration not stated)", "Rmax": "1%"}
{"molecule": "C[C@@H]1SC(N)=N[C@@H]1CC(=O)O (relative stereo)", "Rmax": "inactive"}
{"molecule": "NCCCC(=O)O [GAMMA-AMINOBUTYRIC ACID]", "Rmax": "100%"}
{"molecule": "C[C@@H](C(=O)O)[C@@H]1CSC(N)=N1 (relative stereo)", "Rmax": "22%"}

Please supply Rmax for each of the following items, keeping them in order.
1. O=C(O)Cc1c[nH]cn1 [IMIDAZOLE ACETIC ACID]
2. O=C(O)C[C@@H]1CCNC1

1: 46%; 2: inactive

Please supply Rmax for each of the following items, keeping them in order.
1. O=C(O)C[C@H]1CCNC1
2. C[C@H]1SC(N)=N[C@@H]1CC(=O)O (relative stereo)
3. CC1(CC(=O)O)CSC(N)=N1 (configuration not stated)
4. NC1=NC(CC(=O)O)CS1 (configuration not stated)
5. NC1=NC(CC(=O)O)CN1 (configuration not stated)

1. 93%
2. inactive
3. inactive
4. 86%
5. 81%
